- System: Raf-1^gof intestinal tumors
- condition notes: screen of 480 ICCB compounds in vials; compounds fed to flies with one-day old Raf-1^gof tumors, assessed three days later; esg-Gal4 luciferase
Structures can show the parent of a compound that is named as a salt.
Tick Criterion met if Log2 (fold) (luciferase activity, log2 of the fold difference relative to DMSO controls) is -0.5 or greater. Tick Criterion not met if Log2 (fold) (luciferase activity, log2 of the fold difference relative to DMSO controls) is less than -0.5.

Worked set:
[[record]]
molecule = "CCCCC/C=C\\C[C@@H](/C=C/C=C\\C/C=C\\CCCC(=O)O)OO [12(S)-HPETE]"
assigned_label = "Criterion not met"

[[record]]
molecule = "CCCCC/C=C\\C=C\\[C@H](CCCCCCCC(=O)O)OO [9(S)-HPODE]"
assigned_label = "Criterion met"

[[record]]
molecule = "CCCNCC(O)COc1ccccc1C(=O)CCc1ccccc1 (centres unmarked)"
assigned_label = "Criterion met"


Let's switch to this molecule now.
Could you please find out whether Nc1cc(N2CCCCC2)nc(N)[n+]1OS(=O)(=O)[O-] [MINOXIDIL SULFATE] has Log2 (fold) (luciferase activity, log2 of the fold difference relative to DMSO controls) that meets -0.5 or exceeds it? Criterion met

---

Recorded Log2 (fold) for the following molecules
- Tested on: Raf-1^gof intestinal tumors
- method: Luciferase screen of FDA-approved (NCI) drugs in 96-well plates, flies with Raf-1^gof intestinal tumors; as to Log2 (fold): test concentration or dose not given here
- Type: in vivo, Drosophila
- condition notes: log2 of the Day 3 fold difference in luciferase relative to DMSO controls
Respond using a number only.

[[record]]
molecule = "COc1c2occc2cc2ccc(=O)oc12"
number = "−0.016"

[[record]]
molecule = "CC(=O)O[C@@]12CO[C@@H]1C[C@H](O)[C@@]1(C)C(=O)[C@H](O)C3=C(C)[C@@H](OC(=O)[C@H](O)[C@@H](NC(=O)OC(C)(C)C)c4ccccc4)C[C@@](O)([C@@H](OC(=O)c4ccccc4)[C@H]21)C3(C)C"
number = "−0.887"

[[record]]
molecule = "COc1cc([C@@H]2c3cc4c(cc3[C@@H](O[C@@H]3O[C@@H]5CO[C@@H](c6cccs6)O[C@H]5[C@H](O)[C@H]3O)[C@H]3COC(=O)[C@H]23)OCO4)cc(OC)c1O [Teniposide]"
number = "−0.679"


So what's the measured Log2 (fold) for this one? `Cc1nc(Nc2ncc(C(=O)Nc3c(C)cccc3Cl)s2)cc(N2CCN(CCO)CC2)n1` 0.521

So what's the measured Log2 (fold) for this one? C[C@]12CC[C@@H]3c4ccc(O)cc4C[C@@H](CCCCCCCCC[S+]([O-])CCCC(F)(F)C(F)(F)F)[C@H]3[C@@H]1CC[C@@H]2O (stereo partly drawn) −0.221

So what's the measured Log2 (fold) for this one? CC(=O)O[C@]1(C(C)=O)CC[C@H]2[C@@H]3C=C(C)C4=CC(=O)CC[C@]4(C)[C@H]3CC[C@@]21C [Megestrol acetate] 0.418

---

Recorded Log2 (fold) (luciferase activity, log2 of the fold difference relative to DMSO controls) for the following compounds
- Tested on: Raf-1^gof intestinal tumors
- condition notes: screen of 480 ICCB compounds in vials; compounds fed to flies with one-day old Raf-1^gof tumors, assessed three days later; esg-Gal4 luciferase

Consider the worked cases shown below.
[[record]]
compound = "C1CCC(N=C(NC23CC4CC(CC(C4)C2)C3)N2CCOCC2)CC1.Cl [U-37883A]"
target_desc = "Raf-1^gof intestinal tumors"
result = "−0.572"

[[record]]
compound = "COC[C@@H]([C@H](O)[C@H](O)C(=O)NCC[C@H](C)c1nc(/C=C/C[C@@H]2O[C@]3(C[C@@H](O)[C@@H]2C)O[C@H]([C@H](C[C@H](O)[C@H](C)[C@H](O)[C@H](C)/C=C(C)/C(C)=C/C=C/C(C)=C\\C#N)OC)[C@H](OP(=O)(O)O)C3(C)C)co1)N(C)C [calyculin A, reference compound]"
target_desc = "Raf-1^gof intestinal tumors"
result = "−1.276"

[[record]]
compound = "N#CC(=Cc1ccc2[nH]ccc2c1)C(N)=C(C#N)C#N"
target_desc = "Raf-1^gof intestinal tumors"
result = "−0.559"

[[record]]
compound = "CCCCC/C=C\\C/C=C\\C/C=C\\C/C=C\\CCCC(=O)O[C@@H](CO)COC(=O)CCCCCCCCCCCCCCCCC"
target_desc = "Raf-1^gof intestinal tumors"
result = "−0.532"


// switching to the query compound
So what's the measured Log2 (fold) (luciferase activity, log2 of the fold difference relative to DMSO controls) for this one? CC[C@@H]1/C=C/C=C/C[C@H](C)[C@H](O)[C@](C)(O)C(=O)[C@H](C)[C@@H](O)[C@H](C)C(=O)[C@H](C)[C@@H](O)[C@H](C)/C=C/C(=O)O[C@H]2[C@@H](C)[C@@H](CC1)O[C@@]1(CC[C@@H](C)[C@@H](C[C@H](C)O)O1)[C@@H]2C [oligomycin A, reference compound] −1.131

---

- Tested on: Raf-1^gof intestinal tumors
- method: Luciferase screen of FDA-approved (NCI) drugs in 96-well plates, flies with Raf-1^gof intestinal tumors
- Assay type: in vivo, Drosophila
- condition notes: six-day protocol: single dose for three days, then another dose for three more days
Counter-ions that a name gives are not always drawn.
endpoint name: Day 6 Fold (fold)
Record the value in fold, omitting the unit from your answer.

Consider the worked cases shown below.
[[record]]
compound = "CC[C@]1(O)C[C@H]2CN(CCc3c([nH]c4ccccc34)[C@@](C(=O)OC)(c3cc4c(cc3OC)N(C=O)[C@H]3[C@@](O)(C(=O)OC)[C@H](OC(C)=O)[C@]5(CC)C=CCN6CC[C@]43[C@@H]65)C2)C1 [Vincristine sulfate]"
target_desc = "Raf-1^gof intestinal tumors"
endpoint_name = "Day 6 Fold"
number = 0.394

[[record]]
compound = "N[C@@H](Cc1ccc(N(CCCl)CCCl)cc1)C(=O)O [Melphalan]"
target_desc = "Raf-1^gof intestinal tumors"
endpoint_name = "Day 6 Fold"
number = 0.876

[[record]]
compound = "NC(=O)NO [Hydroxyurea]"
target_desc = "Raf-1^gof intestinal tumors"
endpoint_name = "Day 6 Fold"
number = 1.099


So what's the measured Day 6 Fold for this one? Nc1nc(Cl)nc2c1ncn2[C@H]1C[C@H](O)[C@@H](CO)O1 [Cladribine] 0.652

So what's the measured Day 6 Fold for this one? O=C1c2c(O)ccc(O)c2C(=O)c2c(NCCNCCO)ccc(NCCNCCO)c21 [Mitoxantrone] 0.955

So what's the measured Day 6 Fold for this one? CCCCCOC(=O)Nc1nc(=O)n([C@@H]2O[C@H](C)[C@@H](O)[C@H]2O)cc1F [Capecitabine] 1.087

So what's the measured Day 6 Fold for this one? N.N.[Cl][Pt][Cl] [Cisplatin] 1.120

So what's the measured Day 6 Fold for this one? COc1cc([C@@H]2c3cc4c(cc3[C@@H](O[C@@H]3O[C@@H]5CO[C@@H](C)O[C@H]5[C@H](O)[C@H]3O)[C@H]3COC(=O)[C@H]23)OCO4)cc(OC)c1O [Etoposide] 0.722

---

Recorded Log2 (fold) for the following compounds
- System: Raf-1^gof intestinal tumors
- method: Luciferase screen of FDA-approved (NCI) drugs in 96-well plates, flies with Raf-1^gof intestinal tumors; as to Log2 (fold): test concentration or dose not given here
- Assay type: in vivo, Drosophila
- condition notes: log2 of the Day 3 fold difference in luciferase relative to DMSO controls
Counter-ions that a name gives are not always drawn.
Respond using a number only.

So what's the measured Log2 (fold) for this one? CCCCC(=O)OCC(=O)[C@]1(O)Cc2c(O)c3c(c(O)c2[C@@H](O[C@H]2C[C@H](NC(=O)C(F)(F)F)[C@H](O)[C@H](C)O2)C1)C(=O)c1c(OC)cccc1C3=O [Valrubicin] −0.190

So what's the measured Log2 (fold) for this one? CCCCCOC(=O)Nc1nc(=O)n([C@@H]2O[C@H](C)[C@@H](O)[C@H]2O)cc1F [Capecitabine] −0.078

So what's the measured Log2 (fold) for this one? CCC1=C[C@@H]2CN(C1)Cc1c([nH]c3ccccc13)[C@@](C(=O)OC)(c1cc3c(cc1OC)N(C)[C@H]1[C@@](O)(C(=O)OC)[C@H](OC(C)=O)[C@]4(CC)C=CCN5CC[C@]31[C@@H]54)C2 [Vinorelbine tartrate] −0.190

So what's the measured Log2 (fold) for this one? COc1nc(N)nc2c1ncn2[C@@H]1O[C@H](CO)[C@@H](O)[C@@H]1O [Nelarabine] 0.166

So what's the measured Log2 (fold) for this one? Cc1ccc(-c2cc(C(F)(F)F)nn2-c2ccc(S(N)(=O)=O)cc2)cc1 [Celecoxib] −0.565

So what's the measured Log2 (fold) for this one? Cn1nnc2c(C(N)=O)ncn2c1=O [Temozolomide] −0.032

So what's the measured Log2 (fold) for this one? O=C(O)CCCc1ccc(N(CCCl)CCCl)cc1 [Chlorambucil] 0.175
